assay: Permeability across apical to basolateral side in MDCK-MDR1 cells at 10 uM incubated for 1 hr by mass spectrometric method; format: ADME, cell-based, Canis lupus familiaris; details: dog, mdck-mdr1, 1 h
readout: permeability (%)

- smiles.input: "Clc1ccc(-n2c(-c3ccccc3Cl)nc3c(N4CCC(Nc5ccccc5)CC4)ncnc32)cc1"
  permeability / %: 0
- smiles.input: "O=S(=O)(NC1CCN(c2ncnc3c2nc(-c2ccccc2Cl)n3-c2ccc(Cl)cc2)CC1)c1ccc(F)cc1F"
  permeability / %: 0.1

[a] O=C(NC1CCN(c2ncnc3c2nc(-c2ccccc2Cl)n3-c2ccc(Cl)cc2)CC1)c1ccccc1F
[b] O=C(NC1CCN(c2ncnc3c2nc(-c2ccccc2Cl)n3-c2ccc(C(F)(F)F)nc2)CC1)c1ccccc1
[c] CC(C)(C)OCCC(=O)NC1CCN(c2ncnc3c2nc(-c2ccccc2Cl)n3-c2ccc(Cl)cc2)CC1
Request: With regard to permeability, arrange the entries in ascending order, please. Form entry: ranked labels (order as requested).
Result: a, b, c

* * *

molecular target: Cannabinoid receptor 2 (Homo sapiens, UniProt P34972); test: Displacement of [3H]-CP55940 from human CB2 receptor expressed in CHO cell membranes
Sequence (P34972 whole entry): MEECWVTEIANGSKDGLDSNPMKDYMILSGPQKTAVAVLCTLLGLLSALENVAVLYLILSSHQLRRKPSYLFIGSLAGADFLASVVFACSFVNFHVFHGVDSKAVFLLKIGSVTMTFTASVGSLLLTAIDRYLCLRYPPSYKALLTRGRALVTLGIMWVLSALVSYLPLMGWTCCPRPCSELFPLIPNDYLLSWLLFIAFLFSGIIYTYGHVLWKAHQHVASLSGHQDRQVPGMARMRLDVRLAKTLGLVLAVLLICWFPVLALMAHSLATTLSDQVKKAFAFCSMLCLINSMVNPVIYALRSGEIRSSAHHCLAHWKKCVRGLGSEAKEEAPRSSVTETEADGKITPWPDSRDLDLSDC
pKi: −log10 of the molar value.
readout: pKi

Solved entries (count: 5):
- molecule: "O=S(=O)(CCC(F)(F)F)NC1CCN(c2ncnc3c2nc(-c2ccccc2Cl)n3-c2ccc(Cl)cc2)CC1"
  pKi: 6.38
- molecule: "O=C(NC1CCN(c2ncnc3c2nc(-c2ccccc2Cl)n3-c2ccc(Cl)cc2)CC1)c1ccc(F)cc1"
  pKi: 5.00
- molecule: "O=S(=O)(NC1CCN(c2ncnc3c2nc(-c2ccccc2Cl)n3-c2ccc(C(F)(F)F)nc2)CC1)c1ccccc1F"
  pKi: 6.40
- molecule: "CC(C(=O)NC1CCN(c2ncnc3c2nc(-c2ccccc2Cl)n3-c2ccc(Cl)cc2)CC1)c1ccccc1 (stereo not drawn)"
  pKi: 6.82
- molecule: "O=C(NC1CCN(c2ncnc3c2nc(-c2ccccc2Cl)n3-c2ccc(Cl)cc2)CC1)c1ccc(F)c(F)c1"
  pKi: 5.23

[P] O=S(=O)(NC1CCCCC1)NC1CCN(c2ncnc3c2nc(-c2ccccc2Cl)n3-c2ccc(Cl)cc2)CC1
[Q] O=S(=O)(NC1CCN(c2ncnc3c2nc(-c2ccccc2Cl)n3-c2ccc(Cl)cc2)CC1)c1ccccc1F
Request: Which of these two has the smaller recorded pKi: P or Q ? Kindly state the label of the option you pick.
Result: Q

* * *

biological target: Cannabinoid receptor 1 (Homo sapiens, UniProt P21554); assay: Inverse agonist activity at human CB1 receptor expressed in CHOK1 cells co-expressing Galphaq16 assessed as apparent equilibrium constant after 90 secs by […]-4 AM dye-based FLIPR assay; format: cell-based
Sequence (P21554 whole entry): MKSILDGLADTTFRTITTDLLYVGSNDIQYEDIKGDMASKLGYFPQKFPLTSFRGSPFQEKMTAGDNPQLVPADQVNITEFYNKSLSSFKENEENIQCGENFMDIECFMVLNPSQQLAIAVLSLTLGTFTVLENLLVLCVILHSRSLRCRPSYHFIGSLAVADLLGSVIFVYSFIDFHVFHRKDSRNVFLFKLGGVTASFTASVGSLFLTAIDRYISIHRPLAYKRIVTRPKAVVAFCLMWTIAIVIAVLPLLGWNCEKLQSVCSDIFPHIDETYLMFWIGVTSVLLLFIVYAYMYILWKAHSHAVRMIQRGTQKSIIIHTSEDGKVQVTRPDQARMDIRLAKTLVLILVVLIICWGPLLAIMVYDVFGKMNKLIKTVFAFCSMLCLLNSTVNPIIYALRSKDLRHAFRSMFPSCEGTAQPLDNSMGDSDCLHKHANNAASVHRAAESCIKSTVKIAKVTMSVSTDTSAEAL
readout: Ke(app) (nM)

Solved entries (count: 3):
- smiles.input: "Clc1ccc(-n2c(-c3ccccc3Cl)nc3c(N4CCC(Nc5ccccc5)CC4)ncnc32)cc1"
  readout: "Ke(app)"
  measured.number: 1.4
- smiles.input: "O=S(=O)(NC1CCN(c2ncnc3c2nc(-c2ccccc2Cl)n3-c2ccc(C(F)(F)F)nc2)CC1)c1ccc(F)c(F)c1"
  readout: "Ke(app)"
  measured.number: 1
- smiles.input: "CCCCCS(=O)(=O)NC1CCN(c2ncnc3c2nc(-c2ccccc2Cl)n3-c2ccc(Cl)cc2)CC1"
  readout: "Ke(app)"
  measured.number: 29

[P] O=S(=O)(NC1CCN(c2ncnc3c2nc(-c2ccccc2Cl)n3-c2ccc(C(F)(F)F)nc2)CC1)c1ccccc1F
[Q] O=C(NC1CCN(c2ncnc3c2nc(-c2ccccc2Cl)n3-c2ccc(Cl)cc2)CC1)OC1CCOCC1
Request: Hi, I'm comparing P with Q and wondering which one has the bigger number for Ke(app). Any idea? Kindly state the label of the option you pick.
Result: Q
(Q: 320 nM, P: 0.5 nM)
